The values you see were collected from patent US20230406883A1.

- run.description: in vivo
- Design: species or system mice
- condition.details: mouse, sc, 0.5 mg/kg, Half-life
parameter.measured: half-life

{"molecular.string": "CCCC[C@H](NC(=O)[C@H](CC(C)C)N(C)C(=O)CNC(=O)[C@@H](NC(=O)[C@H](Cc1ccccc1)NC(=O)[C@H](CCCCN)NC(=O)[C@H](CC(=O)O)NC(=O)COCCOCCNC(=O)COCCOCCNC(=O)CC[C@H](NC(=O)CCCCCCCCCCCCCCCCC(=O)O)C(=O)O)C(C)C)C(N)=O", "parameter.measured": "half-life", "reading": "≥ 10 h"}

----------
- run.description: Energy expenditure and weight loss pharmacodynamics in DIO mice
- Format: in vivo
- Parameters: concentration or dose not given beside the values
- condition.details: daily s.c. injections for nine days
Numbered stars: 1 amine (or outer) side, 2 acyl side, 3 side chain; on linkers, the order of the positions; unused ones are H or OH. Square brackets hold non-standard residues; d marks the D form. Peptide text beside a SMILES is read from it. * marks the point of attachment. C18 diacid = O=C(O)CCCCCCCCCCCCCCCCC(=O)*; γGlu = O=C(O)[C@H](CCC(=O)[*:2])N[*:1]; NMeL = CN[C@@H](CC(C)C)C(=O)O; hSer = N[C@@H](CCO)C(=O)O; Nle = CCCC[C@H](N)C(=O)O; AEEA = NCCOCCOCC(=O)O
The reader will find reported Energy expenditure efficacy (change relative to vehicle control) values listed item by item below.
parameter.measured: Energy expenditure efficacy (change relative to vehicle control) (%)

{"molecule": "CCCC[C@H](NC(=O)[C@H](CC(C)C)N(C)C(=O)CNC(=O)[C@@H](NC(=O)[C@H](Cc1ccccc1)NC(=O)[C@H](CCCCN)NC(=O)[C@H](CC(=O)O)NC(=O)COCCOCCNC(=O)COCCOCCNC(=O)CC[C@H](NC(=O)CCCCCCCCCCCCCCCCC(=O)O)C(=O)O)C(C)C)C(N)=O [compound 304, *Asp;Lys;Phe;Val;Gly;NmLeu;Nle;NH2]", "reading": 11}
{"molecule": "COCC[C@H](NC(=O)[C@H](CC(C)C)N(C)C(=O)CNC(=O)[C@@H](NC(=O)[C@H](Cc1ccccc1)NC(=O)[C@H](CCCCN)NC(=O)[C@H](CC(=O)O)NC(=O)COCCOCCNC(=O)COCCOCCNC(=O)CC[C@H](NC(=O)CCCCCCCCCCCCCCCCC(=O)O)C(=O)O)[C@@H](C)O)C(N)=O [compound 383, *Asp;Lys;Phe;Thr;Gly;NmLeu;Metox;NH2] ({C18 diacid-γGlu-AEEA-AEEA}-DKFTG[NMeL][hSer](Me)-NH2)", "reading": 11}
{"molecule": "CCCC[C@H](NC(=O)[C@H](CC(C)C)N(C)C(=O)CNC(=O)[C@@H](NC(=O)[C@H](Cc1ccc(O)cc1)NC(=O)[C@H](CCCCN)NC(=O)[C@H](CC(=O)O)NC(=O)COCCOCCNC(=O)COCCOCCNC(=O)CC[C@H](NC(=O)CCCCCCCCCCCCCCCCC(=O)O)C(=O)O)C(C)C)C(N)=O [compound 305, *Asp;Lys;Tyr;Val;Gly;NmLeu;Nle;NH2] ({C18 diacid-γGlu-AEEA-AEEA}-DKYVG[NMeL][Nle]-NH2)", "reading": 11}
{"molecule": "COCC[C@H](NC(=O)[C@H](CC(C)C)N(C)C(=O)CNC(=O)[C@@H](NC(=O)[C@H](Cc1ccc(O)cc1)NC(=O)[C@H](CCCCN)NC(=O)[C@H](CC(=O)O)NC(=O)COCCOCCNC(=O)COCCOCCNC(=O)CC[C@H](NC(=O)CCCCCCCCCCCCCCCCC(=O)O)C(=O)O)C(C)C)C(N)=O [compound 344, *Asp;Lys;Tyr;Val;Gly;NmLeu;Metox;NH2] ({C18 diacid-γGlu-AEEA-AEEA}-DKYVG[NMeL][hSer](Me)-NH2)", "reading": 12}
